Hey, just so you know, these numbers are from patent US20190161555A1.

# System: CD137 (R&D Systems) (UniProt Q07011 24-186, limits assumed)
# Sequence (Q07011 24-186 limits assumed): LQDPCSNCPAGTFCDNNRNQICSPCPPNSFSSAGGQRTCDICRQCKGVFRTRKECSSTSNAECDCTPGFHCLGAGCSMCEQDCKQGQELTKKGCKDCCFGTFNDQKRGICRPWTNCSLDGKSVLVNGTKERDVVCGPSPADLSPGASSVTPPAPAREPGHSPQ
# Assay details: ELISA, CD137 coated
# Experimental: ELISA plates were coated with human OX40 (R&D Systems, 3388-OX), CD40 (Ancell), or CD137 (R&D Systems) at 0.1 or 0.5 μg/ml. The ELISA plates were washed with PBST and then blocked with PBST+2% BSA for 1 h at room temperature and then washed again with PBST. […] Binding was detected using goat anti human kappa light chain HRP, incubated for 1 h at room temperature. SuperSignal Pico Luminescent was used as substrate and luminescence was measured using Fluostar Optima.
Readout type: binding result

Suppose we examine the binder 1524/1525 (antibody, V domains shown, OX40 antibody, tested as IgG) VH: EVQLLESGGGLVQPGGSLRLSCAASGFTFGSYYMGWVRQAPGKGLEWVSSIGSYYGYTYYADSVKGRFTISRDNSKNTLYLQMNSLRAEDTAVYYCARHDYGALDYWGQGTLVTVSS VL: DIQMTQSPSSLSASVGDRVTITCRASQSISSYLNWYQQKPGKAPKLLIYAASSLQSGVPSRFSGSGSGTDFTLTISSLQPEDFATYYCQQYGPSGLFTFGQGTKLEIK ; what binding result value has been reported?
no binding

Which measured binding result value corresponds to 1170/1171 (antibody, V domains shown, OX40 antibody, tested as IgG) VH: EVQLLESGGGLVQPGGSLRLSCAASGFTFGGYYMSWVRQAPGKGLEWVSYIPGSGGSTYYADSVKGRFTISRDNSKNTLYLQMNSLRAEDTAVYYCARYDYYWMDYWGQGTLVTVSS VL: DIQMTQSPSSLSASVGDRVTITCRASQSISSYLNWYQQKPGKAPKLLIYAASSLQSGVPSRFSGSGSGTDFTLTISSLQPEDFATYYCQQGHGSYPHTFGQGTKLEIK ?
no binding

State the recorded binding result for this entry: 1166/1167 (antibody, V domains shown) VH: EVQLLESGGGLVQPGGSLRLSCAASGFTFGGYYMSWVRQAPGKGLEWVSAISGSGGSTYYADSVKGRFTISRDNSKNTLYLQMNSLRAEDTAVYYCARYDYASMDYWGQGTLVTVSS VL: DIQMTQSPSSLSASVGDRVTITCRASQSISSYLNWYQQKPGKAPKLLIYAASSLQSGVPSRFSGSGSGTDFTLTISSLQPEDFATYYCQQYYWYGLSTFGQGTKLEIK
no binding

# binding result lookup, item 1526/1527 (antibody, V domains shown, OX40 antibody, tested as IgG) VH: EVQLLESGGGLVQPGGSLRLSCAASGFTFSGYSMYWVRQAPGKGLEWVSGIGYSGYGTYYADSVKGRFTISRDNSKNTLYLQMNSLRAEDTAVYYCARYYFHDYAAYSLDYWGQGTLVTVSS VL: DIQMTQSPSSLSASVGDRVTITCRASQSISSYLNWYQQKPGKAPKLLIYAASSLQSGVPSRFSGSGSGTDFTLTISSLQPEDFATYYCQQYGSDSLLTFGQGTKLEIK
no binding
